Molecular target: Glucocorticoid receptor (Homo sapiens)
Sequence (whole entry): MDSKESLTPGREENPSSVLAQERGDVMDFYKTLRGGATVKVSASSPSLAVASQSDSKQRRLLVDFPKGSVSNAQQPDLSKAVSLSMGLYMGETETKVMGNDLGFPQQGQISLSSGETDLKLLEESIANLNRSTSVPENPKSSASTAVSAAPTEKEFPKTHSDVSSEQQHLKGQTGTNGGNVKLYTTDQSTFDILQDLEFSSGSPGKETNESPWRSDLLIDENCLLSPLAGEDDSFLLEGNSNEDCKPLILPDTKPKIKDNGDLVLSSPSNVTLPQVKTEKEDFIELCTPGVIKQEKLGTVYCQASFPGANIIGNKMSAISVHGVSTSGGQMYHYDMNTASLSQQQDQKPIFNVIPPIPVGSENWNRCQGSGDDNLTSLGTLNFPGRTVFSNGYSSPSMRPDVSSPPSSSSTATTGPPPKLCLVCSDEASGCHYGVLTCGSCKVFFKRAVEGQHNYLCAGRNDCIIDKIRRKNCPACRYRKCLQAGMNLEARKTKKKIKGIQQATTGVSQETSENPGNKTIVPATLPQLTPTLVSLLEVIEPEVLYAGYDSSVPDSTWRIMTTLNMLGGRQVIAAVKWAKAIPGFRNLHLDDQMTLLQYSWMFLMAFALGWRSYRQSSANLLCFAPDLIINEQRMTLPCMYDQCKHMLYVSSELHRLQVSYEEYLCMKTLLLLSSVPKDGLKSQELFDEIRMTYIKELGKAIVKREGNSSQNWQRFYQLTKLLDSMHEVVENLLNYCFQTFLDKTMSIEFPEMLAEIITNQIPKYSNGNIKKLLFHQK
Assay: Antagonist activity at GR in human HepG2 cells assessed as inhibition of protein mediated-transcriptional activity by MMTV-promoter driven luciferase reporter gene assay
Format: cell-based
Readings of Efficacy for the listed molecules
# value in %; strip the unit string

For orientation, consider the following solved cases.
structureString | Efficacy / %
CC#C[C@]1(O)CC[C@H]2[C@@H]3CCc4cc(C(=O)Nc5cccnc5C)ccc4[C@H]3[C@@H](OCc3ccccc3)C[C@@]21C | -0.1
C=CCOC(=O)O[C@H]1C[C@@]2(C)[C@@H](CC[C@@]2(O)C#CC)[C@@H]2CCc3cc(C(=O)Nc4cccnc4C)ccc3[C@H]21 | -0.7
CC#C[C@]1(O)CC[C@H]2[C@@H]3CCc4cc(C(=O)Nc5cccnc5C)ccc4C3=CC[C@@]21C | 30.6
CCCCC#C[C@]1(O)CC[C@H]2[C@@H]3CCc4cc(C(=O)Nc5cccnc5C)ccc4[C@H]3[C@@H](O)C[C@@]21C | 74

(Q) What measured Efficacy goes with `CC#C[C@]1(O)CC[C@H]2[C@@H]3CCc4cc(C(=O)Nc5ncccc5C)ccc4[C@H]3[C@@H](O)C[C@@]21C` ?
(A) 239

(Q) Subsequent entry: `CC#C[C@]1(O)CC[C@H]2[C@@H]3CCc4cc(C(=O)Nc5cccnc5C)ccc4[C@H]3[C@@H](OCc3ccc(Cl)cc3)C[C@@]21C`
(A) 0.06

(Q) Repeat for the following molecule: `CC#C[C@]1(O)CC[C@H]2[C@@H]3CCc4cc(C(=O)Nc5cccnc5C)ccc4[C@H]3[C@@H](OCc3cccc(Cl)c3)C[C@@]21C`
(A) -0.3

----------
Target: Glucocorticoid receptor (Mus musculus) (UniProt P06537)
Sequence (P06537 whole entry): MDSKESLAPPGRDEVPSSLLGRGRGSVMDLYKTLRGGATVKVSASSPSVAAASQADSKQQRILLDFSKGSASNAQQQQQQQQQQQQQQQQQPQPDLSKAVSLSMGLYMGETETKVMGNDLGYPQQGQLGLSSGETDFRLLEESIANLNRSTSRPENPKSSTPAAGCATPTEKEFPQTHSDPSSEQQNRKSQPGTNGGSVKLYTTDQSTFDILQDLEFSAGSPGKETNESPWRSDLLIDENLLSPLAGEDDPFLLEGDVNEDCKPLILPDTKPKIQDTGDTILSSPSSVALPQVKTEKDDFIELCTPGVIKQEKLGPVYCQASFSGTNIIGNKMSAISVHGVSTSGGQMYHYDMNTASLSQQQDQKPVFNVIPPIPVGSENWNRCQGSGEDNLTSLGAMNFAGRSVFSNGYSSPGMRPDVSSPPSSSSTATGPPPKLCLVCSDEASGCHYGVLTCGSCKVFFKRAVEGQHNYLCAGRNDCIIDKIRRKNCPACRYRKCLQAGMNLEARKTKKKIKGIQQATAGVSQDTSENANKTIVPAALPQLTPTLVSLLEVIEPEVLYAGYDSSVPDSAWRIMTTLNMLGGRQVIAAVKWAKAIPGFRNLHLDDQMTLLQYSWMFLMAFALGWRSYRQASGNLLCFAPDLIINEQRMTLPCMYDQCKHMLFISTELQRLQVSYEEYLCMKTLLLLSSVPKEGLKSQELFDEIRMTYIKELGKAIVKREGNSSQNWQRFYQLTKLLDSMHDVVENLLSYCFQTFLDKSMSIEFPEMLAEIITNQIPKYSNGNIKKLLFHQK
Assay: Antagonist activity at GR in mouse C2C12 cells assessed as increase in LPS-induced IL6 production by alphaLISA assay relative to control
Type: cell-based
Set-up: scale not given: the % may be the effect or the level left
Active and inactive are the calls of the source. The rule behind the calls is not given here.

structureString | systemUnderTest | Activity
CC#C[C@]1(O)CC[C@H]2[C@@H]3CCc4cc(C(=O)Nc5cccnc5)ccc4[C@H]3[C@@H](O)C[C@@]21C | Glucocorticoid receptor (Mus musculus) (UniProt P06537) | 50%
CC#C[C@]1(O)CC[C@H]2[C@@H]3CCc4cc(C(=O)Nc5cncc(C)c5)ccc4[C@H]3[C@@H](O)C[C@@]21C | Glucocorticoid receptor (Mus musculus) (UniProt P06537) | Active
Cc1ncccc1NC(=O)c1ccc2c(c1)CC[C@@H]1[C@@H]2[C@@H](O)C[C@]2(C)[C@@H](O)CC[C@@H]12 | Glucocorticoid receptor (Mus musculus) (UniProt P06537) | Active
CCCCC#C[C@]1(O)CC[C@H]2[C@@H]3CCc4cc(C(=O)Nc5cccnc5C)ccc4[C@H]3[C@@H](O)C[C@@]21C | Glucocorticoid receptor (Mus musculus) (UniProt P06537) | Active

----------
Molecular target: Glucocorticoid receptor (Homo sapiens)
Sequence (whole entry): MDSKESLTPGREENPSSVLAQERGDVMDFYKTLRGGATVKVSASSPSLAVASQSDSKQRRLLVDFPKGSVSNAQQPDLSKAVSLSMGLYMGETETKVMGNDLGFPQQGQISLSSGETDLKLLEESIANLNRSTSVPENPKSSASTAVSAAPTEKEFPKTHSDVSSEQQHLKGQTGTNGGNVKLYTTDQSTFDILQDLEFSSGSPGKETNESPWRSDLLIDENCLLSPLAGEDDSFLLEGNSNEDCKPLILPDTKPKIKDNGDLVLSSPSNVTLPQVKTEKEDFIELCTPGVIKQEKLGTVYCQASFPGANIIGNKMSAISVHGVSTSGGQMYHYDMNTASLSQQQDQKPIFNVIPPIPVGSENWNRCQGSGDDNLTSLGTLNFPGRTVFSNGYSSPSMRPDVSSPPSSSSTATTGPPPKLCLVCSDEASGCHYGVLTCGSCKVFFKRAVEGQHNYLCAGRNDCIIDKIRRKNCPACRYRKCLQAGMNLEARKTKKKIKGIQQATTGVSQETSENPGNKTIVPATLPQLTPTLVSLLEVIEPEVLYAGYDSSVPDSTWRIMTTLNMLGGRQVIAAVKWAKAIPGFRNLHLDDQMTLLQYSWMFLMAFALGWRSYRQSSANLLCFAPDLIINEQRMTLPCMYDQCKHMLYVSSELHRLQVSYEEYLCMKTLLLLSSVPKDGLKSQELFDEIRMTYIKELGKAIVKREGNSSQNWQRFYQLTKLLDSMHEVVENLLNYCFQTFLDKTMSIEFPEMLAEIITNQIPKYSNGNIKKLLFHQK
Assay: Agonist activity at GR in human HepG2 cells assessed as protein mediated-transcriptional activity by MMTV-promoter driven luciferase reporter gene assay
Assay type: cell-based
Efficacy values for the molecules below.
Please give a number only; it is taken to be in %.

Below, 3 molecules whose answers are already recorded.
structureString | observationType | unitTag | measured
C#C[C@]1(O)CC[C@H]2[C@@H]3CCc4cc(C(=O)Nc5cccnc5C)ccc4[C@H]3[C@@H](O)C[C@@]21C | Efficacy | % | 3.2
Cc1ncccc1NC(=O)c1ccc2c(c1)CC[C@@H]1[C@@H]2[C@@H](O)C[C@@]2(C)[C@H]1CC[C@@]2(O)C#Cc1ccccc1 | Efficacy | % | 2.1
CC#C[C@]1(O)CC[C@H]2[C@@H]3CCc4cc(C(=O)Nc5cccnc5C)ccc4[C@H]3[C@@H](OCc3cccc(Cl)c3)C[C@@]21C | Efficacy | % | 0.2

Moving on to the next molecule.
(Q) Which Efficacy is reported for this molecule? `C=CCOC(=O)O[C@H]1C[C@@]2(C)[C@@H](CC[C@@]2(O)C#CC)[C@@H]2CCc3cc(C(=O)Nc4cccnc4C)ccc3[C@H]21`
(A) 2.4

----------
Biological target: Glucocorticoid receptor (Homo sapiens)
Assay: Agonist activity at GR in human HepG2 cells assessed as protein mediated-transcriptional activity by MMTV-promoter driven luciferase reporter gene assay
I'd appreciate it if you marked entries yes (1) when EC50 is lower than 50 nM and no (0) when it is not.

Examples with answers:
structureString | label
Cc1ncccc1NC(=O)c1ccc2c(c1)CC[C@@H]1[C@@H]2[C@@H](O)C[C@@]2(C)[C@H]1CC[C@@]2(O)C#C[Si](C)(C)C | yes (1)
CC#C[C@]1(O)CC[C@H]2[C@@H]3CCc4cc(C(=O)Nc5cccnc5C)ccc4[C@H]3[C@@H](OCC)C[C@@]21C | yes (1)
CC#C[C@]1(O)CC[C@H]2[C@@H]3CCc4cc(C(=O)Nc5ccncc5C)ccc4[C@H]3[C@@H](O)C[C@@]21C | no (0)
CC#C[C@]1(O)CC[C@H]2[C@@H]3CCc4cc(C(=O)Nc5cccnc5C)ccc4[C@H]3[C@@H](OC)C[C@@]21C | yes (1)
CC#C[C@]1(O)CC[C@H]2[C@@H]3CCc4cc(C(=O)Nc5cnccc5C)ccc4[C@H]3[C@@H](O)C[C@@]21C | no (0)
CC#C[C@]1(O)CC[C@H]2[C@@H]3CCc4cc(C(=O)Nc5cccnc5C)ccc4[C@H]3[C@@H](O)C[C@@]21C | no (0)

Here is the next item to consider.
(Q) Confirm or reject: EC50 of `CCCCC#C[C@]1(O)CC[C@H]2[C@@H]3CCc4cc(C(=O)Nc5cccnc5C)ccc4[C@H]3[C@@H](O)C[C@@]21C` lies strictly below 50 nM
(A) no (0)

Source listed as ChEMBL document CHEMBL3871302.
